Data provenance is patent US7550469B2.

- assay system: cloned human dopamine D3 receptors (Homo sapiens, UniProt P35462)
- Construct: expressed in transfected cells; membrane homogenate
- Sequence (P35462 whole entry): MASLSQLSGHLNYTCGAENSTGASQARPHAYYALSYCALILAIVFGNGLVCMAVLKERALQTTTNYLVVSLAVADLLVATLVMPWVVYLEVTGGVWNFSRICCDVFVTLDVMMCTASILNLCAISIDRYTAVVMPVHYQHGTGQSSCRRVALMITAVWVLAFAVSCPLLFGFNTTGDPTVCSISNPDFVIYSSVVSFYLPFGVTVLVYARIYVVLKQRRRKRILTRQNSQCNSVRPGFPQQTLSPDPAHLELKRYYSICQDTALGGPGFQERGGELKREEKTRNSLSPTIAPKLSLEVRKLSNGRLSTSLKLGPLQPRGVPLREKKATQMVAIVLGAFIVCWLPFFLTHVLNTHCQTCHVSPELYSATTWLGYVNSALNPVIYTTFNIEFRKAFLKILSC
- protocol summary: [N-Methyl-3H]Spiroperidol binding to cloned human dopamine D3 receptors (Protocol 1)
- run parameters: the 24th table; read-out: D3 Ki
pKi: −log10 of the molar value.
assay readout: pKi

The following compounds have reported results that may help.
>  <compound>
COc1ccc(S(=O)(=O)NCC2CC2CN2CCC(c3noc4ccsc34)CC2)cc1 (stereo not shown)

>  <pKi>
7.36

$$$$
>  <compound>
CC(C)(C)c1ccc(S(=O)(=O)NCC2CC2CN2CCN(c3csc4cc(C(F)(F)F)ccc34)CC2)cc1 (racemic)

>  <pKi>
7.03

$$$$

[A] CC(C)(C)c1ccc(S(=O)(=O)NCC2CC2CN2CCC(c3noc4ccsc34)CC2)cc1 (stereo not shown)
[B] CCCCS(=O)(=O)NCC1CC1CN1CCN(c2csc3cc(C(F)(F)F)ccc23)CC1 (stereo not shown)
Could you tell me which of A and B has the lower pKi reading? Pick one; state its label.
B

###

- assay system: cloned human dopamine D3 receptors (Homo sapiens, UniProt P35462)
- Construct: expressed in transfected cells; membrane homogenate
- protocol summary: [N-Methyl-3H]Spiroperidol binding to cloned human dopamine D3 receptors (Protocol 1)
- run parameters: read-out: D3K1
pKi: −log10 of the molar value.
assay readout: pKi

>  <compound>
CC1(C)C(CNC(=O)c2cccc(C#N)c2)C1CN1CCN(c2csc3cc(C(F)(F)F)ccc23)CC1 (stereo not shown)

>  <pKi>
6.94

$$$$

[I] CCn1cc(C(=O)NC(CO)CCCN2CCN(c3csc4cc(C(F)(F)F)ccc34)CC2)c(=O)c2ccc(C)nc21 (stereo not shown)
[II] O=C(NCCCCN1CCN(c2c(Cl)sc3cc(F)ccc23)CC1)C1CCCC1
[III] O=C(NCCCCCCN1CCN(c2csc3cc(C(F)(F)F)ccc23)CC1)c1c[nH]c2ccccc12
[IV] O=C(Cc1ccccc1)NCC1CCC1CN1CCN(c2csc3cc(C(F)(F)F)ccc23)CC1 (stereo not shown)
Order the records, beginning with the lowest pKi and ending with the highest. Record the ranking as a list of labels in the requested order.
IV, I, III, II
(IV: 6.62, I: 6.86, III: 7.36, II: 8.14)

[A] O=C(NCCCCCCN1CCN(c2csc3cc(C(F)(F)F)ccc23)CC1)c1cccc2[nH]ccc12
[B] O=C(NC/C=C\CN1CCN(c2csc3cc(C(F)(F)F)ccc23)CC1)c1cccc(F)c1
Given the listed records, identify the one among A and B with higher pKi. Reply with the label of the item you choose.
A
(A: 8.01, B: 7.33)

###

- assay system: cloned human dopamine D3 receptors (Homo sapiens, UniProt P35462)
- Construct: expressed in transfected cells; membrane homogenate
- protocol summary: [N-Methyl-3H]Spiroperidol binding to cloned human dopamine D3 receptors (Protocol 1)
- run parameters: the 24th table; read-out: D3 Ki
assay readout: Ki (nM)

Example cases with answers are listed next.
>  <compound>
O=S(=O)(NCC1CC1CN1CCC(c2noc3ccsc23)CC1)c1ccc(F)cc1 (stereo not shown)

>  <assay system>
cloned human dopamine D3 receptors (Homo sapiens, UniProt P35462)

>  <Ki / nM>
36.3

$$$$
>  <compound>
O=S(=O)(CCc1cccc2ccccc12)NCC1CC1CN1CCN(c2csc3cc(C(F)(F)F)ccc23)CC1 (stereo not shown)

>  <assay system>
cloned human dopamine D3 receptors (Homo sapiens, UniProt P35462)

>  <Ki / nM>
277

$$$$
>  <compound>
O=S(=O)(NC[C@@H]1C[C@H]1CN1CCN(c2csc3cc(C(F)(F)F)ccc23)CC1)c1ccc(F)cc1 (racemic)

>  <assay system>
cloned human dopamine D3 receptors (Homo sapiens, UniProt P35462)

>  <Ki / nM>
35.1

$$$$

[1] O=S(=O)(NCC1CC1CN1CCN(c2csc3cc(C(F)(F)F)ccc23)CC1)c1ccc(OC(F)(F)F)cc1 (stereo not shown)
[2] COc1ccc(S(=O)(=O)NCC2CC2CN2CCN(c3csc4cc(C(F)(F)F)ccc34)CC2)cc1 (stereo not shown)
[3] CC(C)S(=O)(=O)NCC1CC1CN1CCC(c2noc3ccsc23)CC1 (stereo not shown)
[4] O=S(=O)(NCC1CC1CN1CCC(c2noc3ccsc23)CC1)c1ccc(OC(F)(F)F)cc1 (stereo not shown)
Arrange items by their Ki values in increasing order. Note for the reader: the ranking is given by listing the labels in the order requested.
2, 4, 3, 1
